Assay: NCI Yeast Anticancer Drug Screen. Data for the rad50 strain (AID 155);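 note: 0% = growth of vehicle-only cultures of the same strain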
Conditions: S. cerevisiae rad50 strain growth inhibition; at 50.0 µM
The panel holds about 79,000 compounds, 15% with a hit somewhere; the sample as a whole holds those more often. Activity calls are given as the source filed them. Cut-off read from the data, not from the text of the source: active = growth inhibition above about 70%; inactive = the rest.
Outcome field: choose from True for active, False for inactive

Task: Recorded test call requested for COc1ccc2[nH]cc(C=O)c2c1
Result: False

Task: Next compound: COc1ccccc1C(c1ccccc1OC)c1ccccc1C(=O)O
Result: False

Task: Try c1ccc2c(c1)nn1c3ccc4nonc4c3[n-][n+]21 next.
Result: False

Task: Then this compound: O=C1CCC2=C3C4CCCC5OC6CC(=O)CCC6=C(C6CCCC(OC2C1)C36)C54 (stereo unspecified)
Result: False

Task: Please answer likewise for CC1=CC(=O)C(=Ic2ccccc2)C(=O)O1
Result: False

Task: And for CCN(Cc1cc(Cl)cc(C)c1O)Cc1c(O)ccc2ccccc12 ?
Result: True

----------
Test: NCI Yeast Anticancer Drug Screen. Data for the sgs1 mgt1 strain (AID 161);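 note: 0% = growth of cultures given vehicle only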
Settings: S. cerevisiae sgs1 mgt1 strain, at 50.0 µM, stronger effect = higher value
This is part of a sample that, as a whole, favours compounds with a hit. Of some 79,000 tested, about 15% had one in any assay.
Record form. Attribute: growth inhibition. Fill in for each entry.
Write the number in % without appending the unit.

Task: Quick one: growth inhibition of CSc1ccc(C(=O)C[n+]2cc3ccccc3cc2C)cc1 ?
Result: -16.1

Task: And then O=C1c2ccccc2-c2ccc(I)cc21 , what is it?
Result: 2.25

Task: Now the compound CCCCCCCCCCCCCCCCS(=O)(=O)N/N=C/c1ccc(N(C)C)cc1
Result: 17.1

Task: Then this compound: CC(=O)NCC(O)C(O)C(O)C(O)COC(=O)c1ccccc1 (stereo not drawn)
Result: 19.2

Task: Another compound: CC1=C(C(=O)Nc2cc(C)ccn2)CCO1
Result: -7.2

Task: Field entry: COc1ccc(N2C(=O)[C@@H](N=[N+]=[N-])[C@@H]2[C@H]2COC(C)(C)O2)cc1
Result: 1.3

Task: Now this one: COC(=O)c1csnn1
Result: 12.7

Task: Moving on to CC(=S)NNC(=O)c1ccncc1
Result: -8.2

Task: Next compound: CN(C)C1=Nc2ccccc2C(=S)N2CSCC12 (stereo not drawn)
Result: -16.9

Task: // repeat for Nc1cc(=O)[nH]c(=S)n1-c1ccccc1 and report
Result: -12.2

Task: What do you have for Cn1ccc2c3ccsc3ccc21 ?
Result: 4.55

Task: Now try CCC=Nc1ccccc1CO .
Result: -1.05

Task: Moving on to CC1(COC(=O)C2(C)CO2)CO1 (stereo not drawn)
Result: -6.1

----------
Assay: NCI Yeast Anticancer Drug Screen. Data for the bub3 strain (AID 167)
Conditions: S. cerevisiae bub3 mutant strain, at 50.0 µM, stronger effect = higher value
Method: Growth inhibition of yeast strains with defined genetic alterations is measured as a screen for potential anti-cancer activity. Selected strains with alterations in DNA damage repair or cell cycle control were exposed to compounds and growth inhibition was measured relative to vehicle treated controls. The strain used in this assay is bub3
Compounds without any hit were thinned out: in the full panel of roughly 79,000, 15% have a hit.
Exercise: state measured growth inhibition for each of the compounds provided.
A number alone suffices; assume %.

Task: Give its growth inhibition value. Item: O=C1OC(=O)C2C1C1(Cl)CC2(Cl)C(Cl)=C1Cl (stereo not drawn)
Result: -23.1

Task: Entry to check: CC(=O)Oc1ccc(C2c3cc(OC(C)=O)c(OC(C)=O)cc3CC3C(=O)OCC32)cc1OC(C)=O (stereo not drawn)
Result: 12.3

Task: Do the same for NC(=S)n1nc(-c2ccccc2)c(N=Nc2cccc([N+](=O)[O-])c2)c1-c1ccccc1 please
Result: 0.1

Task: Then this compound: COc1ccc(C2(C3NCCC4=C3CCCC4)CC2)cc1 (stereo not drawn)
Result: -3.7

Task: Let us now turn to CC1CCCCC[N+]1(C)CCO (stereo not drawn)
Result: -7.85

Task: Follow-up item: CC(C)=NNS(=O)(=O)c1ccc(C)cc1
Result: -14.2

Task: And what about the compound CC(COC(=O)c1ccc(N)cc1)NC1CCCCC1 (stereo not drawn) ?
Result: -2.25

Task: Next entry: CCCOC(=O)C(OC(=O)c1ccccc1)C(OC(=O)c1ccccc1)C(=O)OCCC (stereo not drawn)
Result: 5.05

Task: What would you report for O/N=C(/Cc1ccccc1)CC(O)(C(F)(F)F)C(F)(F)F ?
Result: 86.7

Task: How about this compound: NC(N)=NS(=O)(=O)c1ccc(N2C(=O)CC3(CCCC3)C2=O)cc1
Result: 13.4

Task: How about NC(=O)c1cn2ccccc2c1[N+](=O)[O-] ?
Result: 2.8

Task: Try CC(=O)O[C@H]1CC[C@@]2(C)[C@@H](CC[C@@H]3[C@@H]2CC[C@]2(C)[C@@H](C(=O)CCC(F)(F)F)CC[C@@H]32)C1 next.
Result: 0.15

Task: Check NC(=O)c1nnsc1N/N=C/c1ccc([N+](=O)[O-])cc1 too.
Result: -20.1

Task: Repeat for the following compound: Cc1c(F)c(Br)c([N+](=O)[O-])c(C)c1[N+](=O)[O-]
Result: -1.2

Task: Same question for CN(C)CC1CCC/C(=C\c2ccccc2)C1=O (stereo not drawn) please.
Result: 38.5

Task: And O=C1c2ccccc2-c2nnsc21 ?
Result: -6.2

Task: For C=C(C)COC(CCC)OCC(=C)C then?
Result: -2.3

Task: Item: C[C@]1(CO)CCC[C@@]2(C)C1CC[C@H]1CC3C[C@]12CC[C@]3(C)O (stereo partly drawn)
Result: 32.6

Task: Another compound to look at: Nc1ccc2c(c1)C(=O)c1ccccc1C2=O
Result: 8.95

Task: Similarly, COC(=O)CCC(C)C1CCC2C3CCC4CC5CCC4(C)C3(O5)C(Br)C(Br)C12C (stereo not drawn) ?
Result: -25.5

Task: Again, but for Nc1ccccc1SC1CC(=O)N(c2ccc(Oc3ccc(Cl)cc3)cc2)C1=O (stereo not drawn)
Result: -0.15

Task: What do you get for O=C(O)C1=C(C(=O)O)C2CCCC3C4CCCCC4N(N1)C23 (stereo not drawn) ?
Result: 1.15

Task: Would you kindly repeat that for CN(C)C(=O)Nc1ccc(F)cc1 ?
Result: -24.9

Entry source: PubChem BioAssay (NCI)
